molecular target: E. coli GroEL/ES (Escherichia coli); experiment: Inhibition of Escherichia coli GroEL expressed in Escherichia coli DH5alpha/Escherichia coli GroES expressed in Escherichia coli BL21 (DE3) assessed as reduction in GroEL/GroES-mediated denatured rhodanese refolding after 45 mins by spectrometric analysis
Sequence (P0A6F5 whole entry, looked up): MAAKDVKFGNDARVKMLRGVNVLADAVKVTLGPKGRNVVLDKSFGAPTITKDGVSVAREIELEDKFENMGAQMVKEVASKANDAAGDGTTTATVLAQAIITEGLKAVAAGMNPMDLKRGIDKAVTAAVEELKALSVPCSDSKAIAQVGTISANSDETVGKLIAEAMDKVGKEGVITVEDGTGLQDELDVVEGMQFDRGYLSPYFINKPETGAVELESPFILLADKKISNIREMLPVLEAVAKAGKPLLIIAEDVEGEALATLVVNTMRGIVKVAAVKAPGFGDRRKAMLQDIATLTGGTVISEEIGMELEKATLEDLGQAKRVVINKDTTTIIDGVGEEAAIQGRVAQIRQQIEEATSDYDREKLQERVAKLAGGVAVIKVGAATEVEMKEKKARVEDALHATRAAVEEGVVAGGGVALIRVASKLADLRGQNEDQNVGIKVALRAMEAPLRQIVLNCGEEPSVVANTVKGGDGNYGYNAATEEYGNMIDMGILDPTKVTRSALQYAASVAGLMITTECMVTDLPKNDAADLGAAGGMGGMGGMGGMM
pIC50: −log10 of the molar value.
testReadout: pIC50

Solved entries (count: 2):
[
  {
    "substanceSmiles": "COc1ccccc1C(=O)Nc1cccc(Cl)c1",
    "targetSystem": "E. coli GroEL/ES (Escherichia coli)",
    "pIC50": "< 4.00"
  },
  {
    "substanceSmiles": "COc1ccc(Br)cc1C(=O)Nc1ccc(Sc2nc3ccccc3s2)cc1",
    "targetSystem": "E. coli GroEL/ES (Escherichia coli)",
    "pIC50": "< 4.00"
  }
]

Request: pIC50, test system E. coli GroEL/ES (Escherichia coli), entry "O=C(Nc1ccc(Sc2nc3ccccc3s2)c(Cl)c1)c1cc(Br)cc(Br)c1" < 4.00
